pKi: −log10 of the molar value.
Literature roundup of Tyrosine-protein kinase JAK2 (Homo sapiens) data, read-out pKi.

// map c1nc(-c2ccsc2)c2cc[nH]c2n1 to recorded pKi (system: Tyrosine-protein kinase JAK2 (Homo sapiens))
6.30 to 7.00

// map COc1cc2c(cc1OC)CN(c1cc(-c3c(N)nn4cccnc34)ncn1)CC2 to recorded pKi (system: Tyrosine-protein kinase JAK2 (Homo sapiens))
6.30 to 7.00

// map O=C(c1ccc(-c2ncnc3[nH]ccc23)o1)N(CC1CC1)CC(F)(F)F to recorded pKi (system: Tyrosine-protein kinase JAK2 (Homo sapiens))
> 7.00

// map Cc1c[nH]c2ncnc(-c3cnn(CC(C)C)c3)c12 to recorded pKi (system: Tyrosine-protein kinase JAK2 (Homo sapiens))
> 7.00

// map O=C(CCNc1nc(-c2c[nH]c3ncncc23)ncc1F)NCC(F)(F)F to recorded pKi (system: Tyrosine-protein kinase JAK2 (Homo sapiens))
> 6.30

// map O=C(NCC(F)(F)F)[C@@H]1CCN1c1cnc(-c2c[nH]c3ncncc23)nc1 to recorded pKi (system: Tyrosine-protein kinase JAK2 (Homo sapiens))
5.30 to 6.30

// map Oc1ccc(C2Nc3ccccc3-c3ccnc4[nH]cc2c34)cc1O (stereo not shown) to recorded pKi (system: Tyrosine-protein kinase JAK2 (Homo sapiens))
> 6.60

// map N#Cc1cccc(F)c1-c1cc(-n2ccc(C3CCOCC3)n2)c2c(n1)CNC2=O to recorded pKi (system: Tyrosine-protein kinase JAK2 (Homo sapiens))
6.00 to 7.00

// map CC(C)CC(=O)N(C)c1nc(-c2ncnc3[nH]ccc23)cs1 to recorded pKi (system: Tyrosine-protein kinase JAK2 (Homo sapiens))
> 7.00

// map O=C(O)c1cnc(-c2c[nH]c3ncc(Cl)cc23)nc1N1CCC[C@@H]1C(=O)NCC(F)(F)F to recorded pKi (system: Tyrosine-protein kinase JAK2 (Homo sapiens))
≤ 6.30

// map N#Cc1cccc(F)c1-c1cc(-n2cc3c(n2)CCCN3)c2c(n1)CNC2=O to recorded pKi (system: Tyrosine-protein kinase JAK2 (Homo sapiens))
7.00 to 8.00

// map O=C1NCc2nc(-c3c(F)cccc3F)nc(Nc3ccc4c(c3)NCC4)c21 to recorded pKi (system: Tyrosine-protein kinase JAK2 (Homo sapiens))
6.00 to 7.00

// map C=CC(=O)c1c[nH]c2ncnc(-c3ccoc3)c12 to recorded pKi (system: Tyrosine-protein kinase JAK2 (Homo sapiens))
5.30 to 6.30

// map Nc1nn2cccnc2c1-c1cc(NCc2csc3ccccc23)ncn1 to recorded pKi (system: Tyrosine-protein kinase JAK2 (Homo sapiens))
7.00 to 8.00

// map N#Cc1cccc(F)c1-c1cc(-n2ccc(N3CCOCC3=O)n2)c2c(n1)CNC2=O to recorded pKi (system: Tyrosine-protein kinase JAK2 (Homo sapiens))
6.00 to 7.00

// map Cn1cc(-c2ncnc3[nH]ccc23)cc1C(=O)N(CC1CC1)CC(F)(F)F to recorded pKi (system: Tyrosine-protein kinase JAK2 (Homo sapiens))
> 7.00

// map C=CCCOc1nc(N[C@@H](C)c2ccc(F)cc2)cc(-c2c(N)nn3cccnc23)n1 to recorded pKi (system: Tyrosine-protein kinase JAK2 (Homo sapiens))
> 8.00

// map N#CCCN(C(=O)c1cc(-c2ncnc3[nH]ccc23)c[nH]1)C1CCCC1 to recorded pKi (system: Tyrosine-protein kinase JAK2 (Homo sapiens))
> 7.00

// map CCN(CCO)C(=O)c1cc(-c2ncnc3[nH]ccc23)c[nH]1 to recorded pKi (system: Tyrosine-protein kinase JAK2 (Homo sapiens))
> 7.00

// map Oc1cccc(C2Nc3ccccc3-c3ccnc4[nH]cc2c34)c1O (stereo not shown) to recorded pKi (system: Tyrosine-protein kinase JAK2 (Homo sapiens))
> 6.60

// map C=CCN(C(=O)CC(C)C)c1nc(-c2ncnc3[nH]ccc23)cs1 to recorded pKi (system: Tyrosine-protein kinase JAK2 (Homo sapiens))
> 7.00

// map N#Cc1cccc(F)c1-c1cc(-n2ccc(CCO)n2)c2c(n1)CNC2=O to recorded pKi (system: Tyrosine-protein kinase JAK2 (Homo sapiens))
6.00 to 7.00
